Target: SARS-Cov-2 3CLpro (Severe acute respiratory syndrome coronavirus 2)
Assay: biochemical
Settings: Table A, class symbols, read-out: SARS-Cov-2 (IC50)
pIC50: −log10 of the molar value.
recorded endpoint: pIC50

[
  {
    "compound": "CN(C(=O)c1cnc(-c2ccccc2)[nH]1)[C@@H](CC1CC1)C(=O)N1C[C@@]2(C[C@H]1C#N)Oc1cccnc1NC2=O [Compound 211]",
    "pIC50": "6.70 to 7.70"
  },
  {
    "compound": "CN(C(=O)[C@H](CC1(C)CCC1)NC(=O)C(F)(F)F)[C@@H](CC1CC1)C(=O)N1C[C@@]2(C[C@H]1C#N)Oc1ncccc1NC2=O [Compound 206]",
    "pIC50": "> 7.70"
  }
]

Please turn your attention to the following entry.
Can you share its pIC50? I mean this compound: CC(C)C[C@@H](C(=O)N1C[C@]2(C[C@H]1C#N)C(=O)Nc1c3ccccc3nn12)N(C)C(=O)[C@H](C)NC(=O)C(F)(F)F [Example 27] 6.70 to 7.70

###

Listing: pIC50 of selected molecules
Biological target: SARS-Cov-2 3CLpro (Severe acute respiratory syndrome coronavirus 2)
Assay: biochemical
Settings: Table A, class symbols, read-out: SARS-Cov-2 (IC50)
pIC50: −log10 of the molar value.

Examples from the recorded data:
[
  {
    "molecule": "CC(C)C[C@@H](C(=O)N1C[C@@]2(C[C@H]1C#N)Oc1cc(F)cc(F)c1NC2=O)N(C)C(=O)[C@H](Cc1ccc(F)cc1)NC(=O)C(F)(F)F [Compound 69]",
    "pIC50": "> 7.70"
  },
  {
    "molecule": "CN(C(=O)[C@H](CC(C)(C)C)NC(=O)C(F)(F)F)[C@@H](CC1CC1)C(=O)N1C[C@@]2(C[C@H]1C#N)Oc1cc(F)cc(F)c1NC2=O [Compound 89]",
    "pIC50": "> 7.70"
  },
  {
    "molecule": "CC(C)C[C@@H](C(=O)N1C[C@]2(C[C@H]1C#N)C(=O)NCc1nccn12)N(C)C(=O)[C@H](C)NC(=O)C(F)(F)F [Example 46]",
    "pIC50": "6.70 to 7.70"
  },
  {
    "molecule": "COC(=O)N[C@@H](CC1CC1)C(=O)N(C)[C@@H](CC1CC1)C(=O)N1C[C@@]2(C[C@H]1C#N)Oc1ccccc1CNC2=O [Compound 139]",
    "pIC50": "> 7.70"
  },
  {
    "molecule": "CN(C(=O)[C@H](CC1CC1)NC(=O)C(F)(F)C(F)(F)F)[C@@H](CC1CC1)C(=O)N1C[C@@]2(C[C@H]1C#N)Oc1ccccc1CNC2=O [Compound 162]",
    "pIC50": "> 7.70"
  }
]

Can you share its pIC50? I mean this molecule: Cc1nnn(C(CC2CC2)C(=O)N(C)[C@@H](CC2CC2)C(=O)N2C[C@@]3(C[C@H]2C#N)Oc2cc(F)cc(F)c2NC3=O)c1C (relative stereo) [Compound 118] 5.70 to 6.70

Moving on to the next molecule: C[C@H](Nc1ncnc2ccccc12)C(=O)N(C)[C@@H](CC1CC1)C(=O)N1C[C@@]2(C[C@H]1C#N)Oc1cccnc1NC2=O [Compound 230] > 7.70

Moving on to the next molecule: CN(C(=O)CCN1CCOCC1)[C@@H](CC1CC1)C(=O)N1C[C@@]2(C[C@H]1C#N)Oc1cc(F)cc(F)c1NC2=O [Compound 132] 6.70 to 7.70

Moving on to the next molecule: CN(C(=O)[C@H](CC1CC1)NC(=O)C(F)(F)F)C(CC1CC1)C(=O)N1C[C@@]2(C[C@H]1C#N)Oc1cc(S(C)(=O)=O)ccc1NC2=O (stereo in doubt) [Compound 110] > 7.70

Moving on to the next molecule: CN(C(=O)[C@H](CC1CC1)NC(=O)C(F)(F)F)[C@@H](CC1CC1)C(=O)N1C[C@@]2(C[C@H]1C#N)Oc1cc(F)ccc1NC2=O [Compound 50] > 7.70

Moving on to the next molecule: CN(C(=O)[C@@H]1CC[C@@H](c2ccccc2)N1)[C@@H](CC1CC1)C(=O)N1C[C@@]2(C[C@H]1C#N)Oc1cc(F)cc(F)c1NC2=O [Compound 111] > 7.70

Moving on to the next molecule: C[C@H](NC(=O)C(F)(F)F)C(=O)N(C)[C@@H](CC1CCC1)C(=O)N1C[C@@]2(C[C@H]1C#N)Oc1cccnc1NC2=O [Compound 165] > 7.70
